B1: H2-Kb / Ed23 (parent complex)
chain 1: QQKVQQSPESLTVSEGAMASLNCTFSDRSSDNFRWYRQHSGKGLEVLVSIFSDGEKEEGSFTAHLNRASLHVFLHIREPQPSDSALYLCAVRGFWTNKVVFGTGTRLQVLP
chain 2: AQTIHQWPVAEIKAVGSPLSLGCTIKGKSSPNLYWYWQATGGTLQQLFYSITVGQVESVVQLNLSASRPKDDQFILSTEKLLLSHSGFYLCAWSPRQSSYEQYFGPGTRLTVL
chain 3: not shown
chain 4: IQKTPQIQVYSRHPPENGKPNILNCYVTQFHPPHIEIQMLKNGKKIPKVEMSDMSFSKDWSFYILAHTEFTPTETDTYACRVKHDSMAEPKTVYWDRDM
chain 5: SIINFEKL

Variants of: B1
Assay: % of reporter cells activated (NFAT-GFP), raw; further: test concentration or dose not given here
quantityKind: ratio to parent

>>> readoutvalue("chain 5 E6H")
0.551
>>> readoutvalue("chain 5 K7S")
1
>>> readoutvalue("chain 5 S1F")
0.207
>>> readoutvalue("chain 5 I3Y")
0.17
>>> readoutvalue("chain 5 F5W")
1.08

1. chain 5 S1L
2. chain 5 L8D
3. chain 5 E6I
4. chain 5 F5H
5. chain 5 E6N
Prompt: # desc sort on ratio to parent across 5 variants In your reply, arrange the labels in the requested order.
Completion: 4, 2, 1, 5, 3

a. chain 5 I3P
b. chain 5 E6M
c. chain 5 L8S
Prompt: Hey, quick one: sort these by ratio to parent, largest value first please. # output: labels, in the requested order
Completion: a, c, b

P. chain 5 F5M
Q. chain 5 S1M
Prompt: Lower value of ratio to parent belongs to which: P or Q ? The response must carry the label of the picked entry.
Completion: Q
(Q: 0.348, P: 1.15)
